tested on: High Density cholesterol (Chl Large) plaque particles; test: Mass spectroscopy proteomics, semi-quantitative binding affinity of serum proteins (plaqueproteome, Table 2); design: species or system human; details: higher number = stronger affinity
ASSAY ENDPOINT: Semi-quantitative analysis of proteins binding to different plaque particles: Chl Large

Item Immunoglobulin lambda-like polypeptide 1 (protein) LLRPTAASQSRALGPGAPGGSSRSSLRSRWGRFLLQRGSWTGPRCWPRGFQSKHNSVTHVFGSGTQLTVLSQPKATPSVTLFPPSSEELQANKATLVCLMNDFYPGILTVTWKADGTPITQGVEMTTPSKQSNNKYAASSYLSLTPEQWRSRRSYSCQVMHEGSTVEKTVAPAECS has what recorded Semi-quantitative analysis of proteins binding to different plaque particles: Chl Large?
0

Repeat for the following molecule: Isoform 2 of Ficolin-3 (protein) QEHPSCPGPRELEASKVVLLPSCPGAPGSPGEKGAPGPQGPPGPPGKMGPKGEPGPRNCRELLSQGATLSGWYHLCLPEGRALPVFCDMDTEGGGWLVFQRRQDGSVDFFRSWSSYRAGFGNQESEFWLGNENLHQLTLQGNWELRVELEDFNGNRTFAHYATFRLLGEVDHYQLALGKFSEGTAGDSLSLHSGRPFTTYDADHDSSNSNCAVIVHGAWWYASCYRSNLNGRYAVSEAAAHKYGIDWASGRGVGHPYRRVRMMLR
0

Repeat for the following molecule: Ig heavy chain V-III region WEA (protein) EVQLVESGGGLVQPGGSLRLSCAASGFTFSSYEMNWVRQAPGKGLEWVSYISSSGSTIYYADSVKGRFTISRDNAKNSLYLQMNSLRAEDTAVYYCAR
1
